# tgt: HIV-1 integrase (wild-type IN) (Human immunodeficiency virus type 1 group M subtype B)
# test.name: HIV-1 integrase 3′-processing assay (32P-labeled 21-mer, gel)
# Type: biochemical
# condition.context: unit inferred; read-out: IN inhibition activity 3′-processing
For each entry below, report its pIC50 value.
pIC50 is defined as minus the log10 of a concentration measured in mol/L.

Reported pIC50 for HIV-1 integrase (wild-type IN) (Human immunodeficiency virus type 1 group M subtype B), given N#C/C(=C\c1ccc(-c2ccc(C(=O)O)c(O)c2)o1)c1nc2ccccc2[nH]1 ?
4.47

Query for HIV-1 integrase (wild-type IN) (Human immunodeficiency virus type 1 group M subtype B): what pIC50 does the record show for Cc1ccc(C(=O)C2=C(O)C(=O)N(c3ncc(S(=O)(=O)c4ccc([N+](=O)[O-])cc4)s3)C2c2cccc(Cl)c2)cc1 (stereo not drawn) ?
4.57

Give the reported pIC50 for Cc1cc(C)nc(SCc2nnc(SCC(=O)NNC(=O)c3ccccc3O)n2-c2ccccc2)n1 (system: HIV-1 integrase (wild-type IN) (Human immunodeficiency virus type 1 group M subtype B)).
4.29

Lab note: need pIC50 for CC1=C(C#N)c2nc(N)c(C#N)c(C)c2/C1=C/c1ccc(-c2ccccc2C(=O)O)o1 [AV15A45] on HIV-1 integrase (wild-type IN) (Human immunodeficiency virus type 1 group M subtype B), anyone have it?
4.04

Look up pIC50 with HIV-1 integrase (wild-type IN) (Human immunodeficiency virus type 1 group M subtype B) for this compound: O=C(CSc1nnnn1-c1ccccc1)NNC(=O)c1ccc(O)cc1O
4.17

# get_value(readout= pIC50, system= HIV-1 integrase (wild-type IN) (Human immunodeficiency virus type 1 group M subtype B)) for Cc1ccc(C(=O)C2=C(O)C(=O)N(CCCn3ccnc3)C2c2ccc(Cl)cc2)cc1 (stereo not drawn)
4.03

Request body: readout pIC50, system HIV-1 integrase (wild-type IN) (Human immunodeficiency virus type 1 group M subtype B), query O=C(CSc1nnc(-c2ccc(Cl)cc2)n1-c1ccccc1)NNC(=O)c1ccccc1O . Return the value.
4.96

API: value(readout=pIC50, system=HIV-1 integrase (wild-type IN) (Human immunodeficiency virus type 1 group M subtype B)) for record COc1ccc(-n2c(Cc3ccccc3)nnc2SCC(=O)NNC(=O)c2ccccc2O)cc1
4.74

Which measured pIC50 belongs to O=C(CSc1nnc(-c2ccncc2)n1-c1ccc(F)cc1)NNC(=O)c1ccccc1O , tested on HIV-1 integrase (wild-type IN) (Human immunodeficiency virus type 1 group M subtype B)?
4.31

====

# tgt: HIV-1 integrase (wild-type IN) (Human immunodeficiency virus type 1 group M subtype B)
# test.name: HIV-1 integrase 3′-processing assay (32P-labeled 21-mer, gel)
# Format: biochemical
# condition.context: wild-type IN 200 nM, 7.5 mM MnCl2; read-out: Inhibition of IN Catalytic Activities IC50 (μM) 3′-processing
Could you please report measured IC50 for the items listed next?
Write it as a number; the unit µM goes unstated.

# get_value(readout='IC50', item= Oc1cccc2ccc(/C=N/N=C/c3ccc4cccc(O)c4n3)nc12 [RT3] )
45

Please report the recorded IC50 for CCOc1cc(/C=C2/C(=N)N3N=C(C(C)(F)F)SC3=NC2=O)ccc1OCc1ccc(F)cc1 [RT35] .
90

Any idea what IC50 was measured for O=C(CSc1nc2scc(-c3ccco3)c2c(=O)n1-c1ccccc1)NCc1ccco1 [OT51] ?
36

====

I'd appreciate it if you could supply IC50 values for the items below.
# tgt: UniProtKB P12497
# test.name: HIV-1 integrase strand transfer assay (32P-labeled 21-mer, gel)
# Type: biochemical
# condition.context: unit inferred; read-out: IN inhibition activity Strand transfer
Could you give me the number in µM? Just the number is fine.

Which value of IC50 has been reported for COc1cc(/C=N/Nc2nc3nonc3nc2Nc2ccccc2F)ccc1O [AV15A18] in the records?
17

Recorded IC50 of O=C(O)c1cc(-c2ccc(/C=N/Nc3nc4nonc4nc3Nc3ccc(F)cc3)o2)ccc1Cl [AV15A15] , please.
6.5

Item under review: CC1=C(C#N)c2nc(N)c(C#N)c(C)c2/C1=C/c1ccc(-c2ccccc2C(=O)O)o1 [AV15A45] . Reported IC50?
39

Name the recorded IC50 for O=C(CSc1nnc(Cc2ccccc2)n1C1CCCCC1)NNC(=O)c1ccccc1O [AS9A4] .
17

What value of IC50 has been recorded for this entry: O=C(O)c1cccc(-c2ccc(/C=N/Nc3nnn[nH]3)o2)c1 [AV15A1]
96

// query IC50 value for entry COc1cc(C(=O)N/N=C/c2ccc(-c3cccc(C(=O)O)c3)o2)cc(OC)c1OC [AV15A38]
49

Given O=C(CSc1nnc(-c2ccccc2O)n1Cc1ccccc1)NNC(=O)c1ccccc1O [AS9A11] , state its recorded IC50.
9

# input compound: CCOc1ccc(C(=O)C2=C(O)C(=O)N(c3nccs3)C2c2ccc(OC)cc2)cc1 (centres unmarked) [Compound M28A11] ; wanted: its IC50
90

====

# tgt: HIV-1 integrase (wild-type IN) (Human immunodeficiency virus type 1 group M subtype B, UniProt P12497)
# test.name: HIV-1 integrase strand transfer assay (32P-labeled 21-mer, gel)
# Assay type: biochemical
# condition.context: unit inferred; read-out: HIV-1 IN Inhibitory Activities Strand transfer
outcome.measure: IC50 (µM)
Form entry: value (µM) — number only.

Dear colleague, I am looking for the recorded IC50 of the following compound: COc1ccc(N(CC(=O)N/N=C/c2c(O)ccc3ccccc23)S(C)(=O)=O)cc1Cl
59

IC50 lookup needed for O=C(CSc1nc(CSc2ccc(Cl)cc2)cc(=O)[nH]1)Nc1ccc(Cl)cc1Cl , thanks.
24

Item under review: O=C(c1ccccc1)c1cc(Br)ccc1NC(=O)c1nc[nH]c1C(=O)O . Reported IC50?
17

Consider the compound shown here: O=C(Nc1ccc(O)c(-c2nc3cc(Cl)ccc3o2)c1)c1cccnc1 What is its recorded IC50?
10

Reported IC50 for Oc1ccccc1/C=N/CC(O)C/N=C/c1ccccc1O : what is it?
61

Name the recorded IC50 for O=C(Nc1ccccc1C(=O)O)c1cccc(S(=O)(=O)Nc2cccc([N+](=O)[O-])c2)c1 .
90

Returns the measured IC50 for the input compound. Input: COc1ccc2oc(=O)c(-c3csc(N/N=C/c4ccco4)n3)cc2c1
29

State the recorded IC50 for this entry: O=C(/C=C/c1ccc(Cl)cc1)Nc1ccc(NC(=O)c2ccco2)cc1
91

Fill in: IC50 of Cc1ccc(C(=O)C2=C(O)C(=O)N(CCCn3ccnc3)C2c2ccc(Cl)cc2)cc1 (centres unmarked) is ___
67

Find the recorded IC50 belonging to Cc1ccc(C2C(C(=O)c3ccc(Cl)cc3)=C(O)C(=O)N2CC(=O)O)cc1 (centres unmarked) and report it.
69

Reported IC50 for Cc1ccc(C(=O)N/C(=C/c2ccc(-c3ccc(Cl)cc3Cl)o2)C(=O)NCCCO)cc1 : what is it?
85

For the compound O=C(N/N=C/c1ccc(/C=N/NC(=O)c2cc(O)cc(O)c2)cc1)c1cc(O)cc(O)c1 , what IC50 is on record?
56

Which IC50 value belongs to O=C(N/N=C1\C(=O)Nc2ccc(Br)cc21)/C(O)=C/C(=O)c1ccc(Cl)cc1 ?
28

Request the reported IC50 associated with COc1ccc(C(=O)Nc2ccc(O)c(-c3nc4ccccc4o3)c2)cc1[N+](=O)[O-]
7

# get_value(readout='IC50', item= O=C(Nc1ccc(O)c(-c2nc3ccccc3o2)c1)c1cccc2ccccc12 )
6

====

# tgt: HIV-1 integrase (wild-type IN) (Human immunodeficiency virus type 1 group M subtype B, UniProt P12497)
# test.name: HIV-1 integrase strand transfer assay (32P-labeled 21-mer, gel)
# Format: biochemical
# condition.context: wild-type IN 200 nM, 7.5 mM MnCl2; read-out: Inhibition of IN Catalytic Activities IC50 (μM) Strand Transfer
outcome.measure: IC50 (µM)
Could you give me the number in µM? Just the number is fine.

# query: IC50 of entry O=C(O)c1ccc(S(=O)(=O)c2ccc3c(c2)C(=O)N(c2ccc(O)c(C(=O)O)c2)C3=O)cc1 [Compound X125]
44

// returns reported IC50 for input CCOc1ccc(N(CC(=O)Nc2ccccc2C(=O)O)S(=O)(=O)c2ccc(Cl)cc2)cc1 [OT27]
47

Which IC50 is listed for O=c1cc(-c2ccccc2)c2ccc(O)c(O)c2o1 [SR44] ?
16

Which IC50 reading was recorded for the compound Nc1nonc1-c1nc2ccccc2n1CC(=O)N/N=C/c1ccc(-c2cccc(C(=O)O)c2)o1 [NST20] ?
68

Which IC50 value belongs to COc1cc(/C=C2/SC(=S)N(CC(=O)O)C2=O)ccc1OC(=O)c1ccc(F)cc1 [OT9] ?
97

# lookup: IC50 of O=C(CCN1C(=O)/C(=C/c2ccc3c(c2)OCO3)SC1=S)Nc1ccc2c(c1)OCO2 [Compound X187]
93

Which IC50 is listed for O=C(CN1C(=O)/C(=C2\SC(=S)N(CC(=O)Nc3ccc(O)cc3)C2=O)SC1=S)Nc1ccc(O)cc1 [Compound X103] ?
69

Consider the compound shown here: COc1cc(C=C2SC(=S)N(CCC(=O)Nc3ccc(C(=O)O)cc3)C2=O)cc(OC)c1OC [Compound X173] What is its recorded IC50?
85

Quick one: IC50 of O=C(O)c1c[nH]c2c(F)c(F)c(F)c(NCc3ccccc3)c2c1=O [ROM3] ?
12

Request the reported IC50 associated with CCn1c(=O)c(C(=O)Nc2ccccc2O)c(O)c2ccccc21 [XR10]
32

What value of IC50 has been recorded for this entry: COc1cc(C=C2SC(=S)N(CC(=O)Nc3cc(Cl)ccc3O)C2=O)cc(OC)c1OC [Compound X171]
17

Please give the measured IC50 for this compound: Cn1c(=O)c(C(=O)Nc2ccccc2S(N)(=O)=O)c(O)c2ccccc21 [XR8]
39

Given the entry Oc1cccc2ccc(/C=C/c3ccc(-c4cccc(Cl)c4)o3)nc12 [RT29] , report its measured IC50.
70

What IC50 value was documented for this compound, O=C(CN1C(=O)/C(=C2\SC(=S)N(CC(=O)Nc3ccc(C(=O)O)cc3)C2=O)SC1=S)Nc1ccc(C(=O)O)cc1 [Compound X102] ?
75

Fill in: IC50 of O=C(Nc1nncs1)c1c(O)c2ccccc2n(Cc2ccccc2)c1=O [LM33] is ___
36

So what's the measured IC50 for this one? O=C(CSc1nc2scc(-c3ccco3)c2c(=O)n1-c1ccccc1)NCc1ccco1 [OT51]
14

// returns reported IC50 for input N#Cc1c(-c2ccc(F)cc2)cc(C2CC2)nc1SCCN1C(=O)c2ccccc2C1=O [OT33]
95

Request the reported IC50 associated with Cc1ccc(C=C2SC(=S)N(CC(=O)Nc3cc([N+](=O)[O-])ccc3O)C2=O)cc1 [Compound X191]
80

May I ask what IC50 has been recorded for CCn1c(=O)c(C(=O)Nc2ccccc2C(=O)OC)c(O)c2ccccc21 [XR15] ?
9.5

Looking for the measured IC50 of COc1ccc(/C=C2/SC(=S)N(CC(=O)O)C2=O)cc1OCc1ccccc1F [OT37] , can you help?
79

Entry COc1cc(/C=C2/SC(=S)N(CC(=O)O)C2=O)ccc1OCc1ccccc1 [OT3] : reported IC50 = ?
92

Which measured IC50 value corresponds to O=C(NCc1cccs1)c1c[nH]c2ccc(S(=O)(=O)Nc3ccc4c(c3)OCCO4)cc2c1=O [ROM3A11] ?
90

I have this compound here, O=C(NN1C(=O)/C(=C/c2ccc(Br)cc2)SC1=S)c1ccccc1O [Compound X220] , and I need its recorded IC50.
27

Report IC50 for CCn1cc(C(=O)O)c(=O)c2cc(F)c(N3CCN(C(=S)NC(=O)C45CC6CC(CC(C6)C4)C5)CC3)cc21 [ROM3A8] please.
74

Data request, read-out IC50, for CC(=Cc1ccccc1)C=C1SC(=S)N(CCC(=O)Nc2ccc(O)c(C(=O)O)c2)C1=O [Compound X185]
23
